Target: Cytochrome P450 3A4 (Homo sapiens, UniProt P08684)
Sequence (P08684 whole entry): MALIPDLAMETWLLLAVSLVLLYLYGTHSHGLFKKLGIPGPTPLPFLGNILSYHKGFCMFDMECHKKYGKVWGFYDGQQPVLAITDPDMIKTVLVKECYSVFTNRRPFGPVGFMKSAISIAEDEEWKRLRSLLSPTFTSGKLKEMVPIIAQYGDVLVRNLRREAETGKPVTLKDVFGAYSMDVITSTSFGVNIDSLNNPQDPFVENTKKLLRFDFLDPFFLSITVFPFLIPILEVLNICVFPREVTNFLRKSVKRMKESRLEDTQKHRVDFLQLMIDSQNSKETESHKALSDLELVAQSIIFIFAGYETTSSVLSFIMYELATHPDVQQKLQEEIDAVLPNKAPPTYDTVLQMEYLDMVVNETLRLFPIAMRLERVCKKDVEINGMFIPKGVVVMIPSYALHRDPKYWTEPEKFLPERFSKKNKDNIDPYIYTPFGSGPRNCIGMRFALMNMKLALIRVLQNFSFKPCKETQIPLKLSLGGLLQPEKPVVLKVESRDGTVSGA
Test: Inhibition of CYP3A4 in human liver microsomes using midazolam as substrate assessed as residual enzyme activity after 2 to 10 mins by LC-MS/MS analysis
Assay type: ADME
Readout label: Ki (nM)
Dear colleague, please return just the value in nM, with no unit written.

Value of Ki reported for the compound `C[C@H](c1nc2ncccc2c(=O)n1-c1ccc(O)cc1)N(Cc1cccnc1)C(=O)Cc1ccc(OC(F)(F)F)cc1` is 1900

----------
Molecular target: CYP3A4 (Homo sapiens)
Sequence (P08684 whole entry): as above
Experiment: Ratio of IC50 for CYP3A4 in human liver microsomes using testosterone as substrate preincubated for 30 mins followed by 10-fold dilution and substrate addition to IC50 for CYP3A4 in human liver microsomes using testosterone as substrate preincubated for 30 mins followed by 10-fold dilution and substrate addition in presence of NADPH
Conditions: probe testosterone, read-out: Ratio IC50
Readout label: IC50 shift at 30 min
Lab note: record just the number, no unit beside it.

Measured on CYP3A4 (Homo sapiens), `C[C@H](c1nc2ncccc2c(=O)n1-c1ccc(O)cc1)N(Cc1cccnc1)C(=O)Cc1ccc(OC(F)(F)F)cc1` has a documented IC50 shift at 30 min of 31
